Measured EC50 by item
Test system: OVCAR3 (human ovarian cancer cell line)
Assay: 72 hr ATP luminescence proliferation inhibition, OVCAR3
Format: cell-based
Conditions: Homo sapiens, OVCAR-3, read-out: Proliferation Inhibition of Cancer Cells EC50, OVCAR3
Description: Proliferation inhibition was measured using a 72 hr ATP luminescence assay (Cheng et al., U.S. Pat. No. 8,394,922 B2 (2013)). Proliferation inhibition was measured against: (a) H226 (human mesothelioma (lung) cancer cell line); (b) N87 (human gastric (stomach) cancer cell line); (c) OVCAR3 (human ovarian cancer cell line); (d) HCT116 (human colon cancer cell line); and (e) HCT116/VM46 (multidrug and paclitaxel resistant subline of HCT116).
Only the number, expressed in nM, is required.

See these solved cases before continuing.
- Line notation: "O=C(c1cc2c3c(cc(O)c2[nH]1)N(C(=O)c1cc2cc(OCCC4CC4)ccc2[nH]1)C[C@H]3CCl)N1CCOCC1"
  Measurement kind: "EC50"
  Numeric value: 0.41
- Line notation: "CC(C)Oc1ccc2[nH]c(C(=O)N3C[C@@H](CCl)c4c3cc(O)c3[nH]c(C(=O)N5CCOCC5)cc43)cc2c1"
  Measurement kind: "EC50"
  Numeric value: 0.12

Q: Identify the reported EC50 for the following entry. COc1ccc2[nH]c(C(=O)N3C[C@@H](CCl)c4c3cc(O)c3[nH]c(C(=O)N5CCOCC5)cc43)cc2c1
A: 0.52

###

tested on: H226 (human mesothelioma (lung) cancer cell line); assay: 72 hr ATP luminescence proliferation inhibition, H226; assay type: cell-based; details: read-out: Proliferation Inhibition of Cancer Cells EC50, H226
Measured EC50 by item
Only the number, expressed in nM, is required.

- Molecule: "COCOc1ccc(C(=O)Nc2ccc3nc(C(=O)N4C[C@@H](CCl)c5c4cc(O)c4[nH]c(C(=O)N6CCOCC6)cc54)cn3c2)cc1 [Ib-02]"
  Unit: "nM"
  EC50: 1
- Molecule: "CC[C@@H](CO)NC(=O)c1cc2c3c(cc(O)c2[nH]1)N(C(=O)c1cc2cc(OC)ccc2[nH]1)C[C@H]3CCl [Ia-23]"
  Unit: "nM"
  EC50: 7.5
- Molecule: "O=C(c1cc2c3c(cc(O)c2[nH]1)N(C(=O)c1cc2cc(OC4CCC4)ccc2[nH]1)C[C@H]3CCl)N1CCOCC1 [Ia-06]"
  Unit: "nM"
  EC50: 0.47

Q: Identify the reported EC50 for the following entry. COc1ccc2[nH]c(C(=O)N3C[C@@H](CCl)c4c3cc(O)c3[nH]c(C(=O)NCCOCCO)cc43)cc2c1 [Ia-22]
A: 5.1

Q: Identify the reported EC50 for the following entry. CCCOc1ccc2[nH]c(C(=O)N3C[C@@H](CCl)c4c3cc(O)c3[nH]c(C(=O)N5CCCOCC5)cc43)cc2c1 [Ia-28]
A: 0.3

Q: Identify the reported EC50 for the following entry. COCCOc1ccc2[nH]c(C(=O)N3C[C@@H](CCl)c4c3cc(O)c3[nH]c(C(=O)Nc5ccc(N)cc5)cc43)cc2c1 [Ia-29]
A: 0.63

###

test system: N87 (human gastric (stomach) cancer cell line); test: 72 hr ATP luminescence proliferation inhibition, N87; assay type: cell-based; settings: Homo sapiens, read-out: Proliferation Inhibition of Cancer Cells EC50, N87
Measured EC50 by item
Only the number, expressed in nM, is required.

See these solved cases before continuing.
- Compound: "CC(C)Oc1ccc2[nH]c(C(=O)N3C[C@@H](CCl)c4c3cc(O)c3[nH]c(C(=O)N5CCOCC5)cc43)cc2c1 [Ia-13]"
  Tested system: "N87 (human gastric (stomach) cancer cell line)"
  Unit: "nM"
  Numeric value: 0.48
- Compound: "COc1ccc2[nH]c(C(=O)N3C[C@@H](CCl)c4c3cc(O)c3[nH]c(C(=O)N5CCOCC5)cc43)cc2c1 [Ia-11]"
  Tested system: "N87 (human gastric (stomach) cancer cell line)"
  Unit: "nM"
  Numeric value: 1.2
- Compound: "O=C(c1cc2c3c(cc(O)c2[nH]1)N(C(=O)c1cc2cc(OCCO)ccc2[nH]1)C[C@H]3CCl)N1CCOCC1 [Ia-08]"
  Tested system: "N87 (human gastric (stomach) cancer cell line)"
  Unit: "nM"
  Numeric value: 1.3
- Compound: "Nc1ccc2[nH]c(C(=O)Nc3ccc4[nH]c(C(=O)N5C[C@@H](CCl)c6c5cc(O)c5[nH]c(C(=O)N7CCOCC7)cc65)cc4c3)cc2c1 [Ic-01]"
  Tested system: "N87 (human gastric (stomach) cancer cell line)"
  Unit: "nM"
  Numeric value: 1.5
- Compound: "CCOc1ccc2[nH]c(C(=O)N3C[C@@H](CCl)c4c3cc(O)c3[nH]c(C(=O)N5CCOCC5)cc43)cc2c1 [Ia-02]"
  Tested system: "N87 (human gastric (stomach) cancer cell line)"
  Unit: "nM"
  Numeric value: 0.097
- Compound: "COc1cc2cc(C(=O)N3C[C@@H](CCl)c4c3cc(O)c3[nH]c(C(=O)N5CCOCC5)cc43)[nH]c2c(OC)c1OC [Ia-30]"
  Tested system: "N87 (human gastric (stomach) cancer cell line)"
  Unit: "nM"
  Numeric value: 0.045

Would you kindly look at the next entry?
Q: Provide the reported EC50 (system: N87 (human gastric (stomach) cancer cell line)) for O=C(Nc1ccc2[nH]c(C(=O)N3C[C@@H](CCl)c4c3cc(O)c3[nH]c(C(=O)N5CCOCC5)cc43)cc2c1)c1ccc(O)cc1 [Id-01]
A: 2.3
